- System: HCT-15 colon
- EXPERIMENTAL PROTOCOL: NCI tumour cell line growth inhibition, 48 h
Exercise: for every item that follows, state its recorded TGI.

# annotated cases, reported TGI shown
>>> print(df.to_string())
                                   compound  study_target  test_readout  reported
0  CCCc1cc(=O)n2c(C(=O)Nc3ccc(Cl)cc3C)c(C(=O)Nc3ccc(F)cc3)sc2n1  HCT-15 colon           TGI  > 150 µM
1  CC1=C2C(=C[C@H]3[C@]4(C)CCCC(C)(C)[C@H]4CC[C@]34O[C@H]24)OC1=O  HCT-15 colon           TGI  > 100 µM
2  Nc1c(-c2ccccc2-c2c(N)[n+]([O-])c3ccccc3[n+]2[O-])[n+]([O-])c2ccccc2[n+]1[O-]  HCT-15 colon           TGI  > 100 µM
3          Nc1nc(N)c(N=O)c(Nc2ccc(Br)cc2)n1  HCT-15 colon           TGI  > 100 µM

Items follow; give TGI for each.
1. CC(=O)Oc1cc(C(F)(F)F)ccc1C(=O)OC1(C)OC(=O)c2ccc(C(F)(F)F)cc2O1 (stereo unspecified)
2. O=C1c2ccccc2-c2c1c1ccccc1c(=O)n2CCN1CCNCC1
3. CNc1ncnc2c1cnn2COCC(O)CO (stereo unspecified)
4. Cn1cc(-c2csc(-c3cn(CCCCN4CCCCC4)c4ccccc34)n2)c2cccnc21
5. CC1(C)C2CC(=O)C1(C)C(O)C2Br (stereo unspecified)
6. O=[N+]([O-])c1ccc(/C=C/c2cc(-c3ccccc3)nc3ccc4ccccc4c23)cc1
7. Cc1cc(Nc2nc(-c3cn(-c4ccc(Cl)cc4)nn3)nc3ccccc23)n[nH]1

Reply text:
> 100 µM
11.3 µM
> 100 µM
2.9 µM
> 100 µM
> 100 µM
> 50 µM

Return reported TGI values for all items listed beneath this line.
1. N#CCCN1C/C(=C/c2ccc(Br)cc2)C(=O)/C(=C/c2ccc(Br)cc2)C1
2. Oc1[nH]c2ccc(Br)cc2c1N=NC(=S)Nc1ccc(F)cc1
3. CCCC(=O)C1=C(O)C(Cc2c(O)c(C)c(O)c(C(=O)CCC)c2O)=C(O)C(C)(C)C1=O
4. Cc1ccc(CC[P+](=O)CCc2ccc(C)nc2)cn1
5. CC1(C)CN=C(NN=C(/C=C/c2ccc(C(F)(F)F)cc2)/C=C/c2ccc(C(F)(F)F)cc2)NC1
6. Cc1ccc(C)c(N2C/C(=N\NC(=O)CC#N)C(c3nc4ccccc4s3)C(=O)C2=O)c1 (stereo unspecified)
7. O=C(NCc1ccc(Cn2c(=O)sn(-c3ccccc3)c2=O)cc1)OCc1ccc2cccc(O)c2n1
8. c1ccc2c(c1)c1c(n2CCOCCN2CCOCC2)CCCC1

Reply text:
["2.9 µM", "11.8 µM", "> 50 µM", "> 100 µM", "2.45 µM", "> 100 µM", "0.969 µM", "> 100 µM"]

List reported TGI for each of these compounds:
1. Nc1ccc(-c2nc3ccccc3s2)cc1C(F)(F)F
2. CC1=NN(C(=O)CC(=O)Nc2ccccc2F)C(=O)C1N=Nc1ccccc1[N+](=O)[O-] (stereo unspecified)

Reply text:
1: 27.6 µM; 2: > 100 µM

---

- Tested on: MOLT-4 leukemia
- EXPERIMENTAL PROTOCOL: NCI tumour cell line growth inhibition, 48 h
TEST READOUT: TGI (µM)
Answers are plain numbers, in µM.

The following compounds each have a reported value; give each one's TGI.
1. CC(C)=CCC/C(C)=C/COC(C)(C)C1=CCC(C)CC1 (centres undefined) (tested in a mixture with another compound)
2. O=C(c1ccco1)c1c(C(F)(F)F)n([O-])c2ccc(C(F)(F)F)cc2[n+]1=O
3. CC(=O)O[C@H]1C(=O)[C@@]2(C)[C@H]([C@H](OC(=O)c3ccc(F)cc3)[C@]3(O)C[C@H](OC(=O)[C@H](O)[C@@H](NC(=O)c4ccccc4)c4ccccc4)C(C)=C1C3(C)C)[C@]1(OC(C)=O)CO[C@@H]1C[C@@H]2O
4. CCCCNC(=S)N/N=C/c1cccc(C)n1

Reply text:
[36.2, 0.313, 2.6, 55.1]

---

- System: PC-3 prostate
- EXPERIMENTAL PROTOCOL: NCI tumour cell line growth inhibition, 48 h
TEST READOUT: TGI

Below, 5 compounds whose answers are already recorded.
In [3]: df
Out[3]:
                                   molecule   study_target  test_readout  reported
0       CN(Cc1ccccc1)c1cc(=O)n(C)c(=O)[nH]1  PC-3 prostate           TGI  > 100 µM
1  NNCCc1ccc(NC(=O)CCCc2ccc(C(=O)Nc3ccccc3N)cc2)cc1  PC-3 prostate           TGI  > 100 µM
2  CC1=C2C(=C[C@H]3[C@]4(C)CCCC(C)(C)[C@H]4CC[C@]34O[C@H]24)OC1=O  PC-3 prostate           TGI  > 100 µM
3         Nc1ccc(-c2nc3ccccc3s2)cc1C(F)(F)F  PC-3 prostate           TGI   29.1 µM
4       O=c1[nH]cnc2c1ncn2[C@@H]1C[C@@H]1CO  PC-3 prostate           TGI  > 100 µM

Answer for every listed entry: what is its TGI? The entries follow.
1. CC(=O)c1cccn1/C=C(\OC(=O)OC(C)(C)C)c1ccc[nH]1
2. CCC1=NC(C(F)(F)F)(C(F)(F)F)N=C(N2CCOCC2)O1

Reply text:
["> 100 µM", "> 100 µM"]

---

- Test system: HT29 colon
- EXPERIMENTAL PROTOCOL: NCI tumour cell line growth inhibition, 48 h; in the data active = GI50 below about 0.43 µM; inactive = the rest
Please answer using one outcome listed in 1.0 for active, 0.0 for inactive

                                   compound  group_label
0  Nc1ccccc1O.O.O=C(O)C1[O][Sb][O]C1C(=O)O (stereo not given)          0.0
1           ClCCN(CCCl)c1ccc(CNc2ccccc2)cc1          0.0
2  COc1cc2c(Nc3cc(Cl)c(OC)c(Cl)c3)c(C#N)cnc2cc1OCCCN1CCN(C)CC1          0.0

Inquiry: Hi team, can someone confirm the assay call for `CC(C)c1[nH]nc2c1N=C(c1ccccc1Cl)c1cc([N+](=O)[O-])ccc1N2` ?
Reply text: 0.0

Inquiry: Answer briefly: the call reported for `COc1cc2cc(Oc3ccc(NC(=O)c4cc(C(F)(F)F)cc(C(F)(F)F)c4)cc3)c(C)nc2cc1OC` in this assay.
Reply text: 0.0

Inquiry: How did this test come out for `CCCc1cc(=O)n2c(C(=O)Nc3ccc(Cl)cc3C)c(C(=O)Nc3ccc(F)cc3)sc2n1` ?
Reply text: 0.0

---

- System: NCI-H460 lung
- EXPERIMENTAL PROTOCOL: NCI tumour cell line growth inhibition, 48 h
TEST READOUT: TGI

>>> print(df.to_string())
                                   compound   reported
0  COc1ccc(S(=O)(=O)N2C(=O)CCC2C(=O)NN)cc1 (centres undefined)   > 100 µM
1  CC(C)=CCC/C(C)=C/COC(C)(C)C1=CCC(C)CC1 (centres undefined) (tested in a mixture with another compound)   > 100 µM
2  Cc1cccc(C2=C/C(=C(\SS/C(C(=O)c3ccc(OCC(=O)O)c(Cl)c3Cl)=C3\C=C(c4cccc(C)c4)SS3)C(=O)c3ccc(OCC(=O)O)c(Cl)c3Cl)SS2)c1  > 68.1 µM

For each entry beneath this line, provide reported TGI.
1. CC(=O)N1CCN(c2ccc(OCC3COC(Cn4ccnc4)(c4ccc(Cl)cc4Cl)O3)cc2)CC1 (centres undefined)
2. O=c1ccn(C2OC(CO)C(P(=O)(O)O)C2O)c(=O)[nH]1 (centres undefined)
3. C=C1c2cc3c(cc2CC12Cc1cc4c(cc1C2=O)CCC4)CCC3 (centres undefined)
4. CNc1ncnc2c1cnn2COCC(O)CO (centres undefined)
5. O=C1Nc2ccccc2/C1=C1\CCc2cc(O)ccc21
6. O=C(Cc1ccccc1)NN1C(=O)/C(=C\c2ccccc2)SC1=Nc1ccccc1

Reply text:
1. > 100 µM
2. > 100 µM
3. > 100 µM
4. > 100 µM
5. > 25 µM
6. > 100 µM

---

- Tested on: NCI-H522 lung
- EXPERIMENTAL PROTOCOL: NCI tumour cell line growth inhibition, 48 h
Provide the recorded TGI for the entries that follow.

>>> df
                                   molecule  test_readout  reported
0       O=c1[nH]cnc2c1ncn2[C@@H]1C[C@@H]1CO           TGI  > 100 µM
1  O=C(NCc1ccc(Cn2c(=O)sn(-c3ccccc3)c2=O)cc1)OCc1ccc2cccc(O)c2n1           TGI   1.69 µM

Provide TGI values for the following items, in order.
1. CC(C)=CCC/C(C)=C/COC(C)(C)C1=CCC(C)CC1 (centres undefined) (tested in a mixture with another compound)
2. CC(C)CCC[C@@H](C)C1CCC2[C@@H]3CC=C4C[C@@H](C(=O)NCCN(C)C)CC[C@]4(C)C3CC[C@@]21C (some centres undefined)

Reply text:
1: > 100 µM; 2: > 100 µM

Reference source: PubChem BioAssay (NCI)
